- assay_info: Human microsome stability assay
- Format: in vitro ADME
- cond: 1 μM test compound, 0.5 mg/mL liver microsomal protein, 37° C., pH 7.4
experimental_readout: Clearance of Human microsome (mL/min/kg)

Some solved entries appear below for comparison.
Cc1cc(N2Cc3ccc(N4CCNCC4)nc3[C@H](C)C2)c2cnn(C)c2n1 7.3
C[C@H]1CN(c2ccnc3c2cnn3C)Cc2ccc(N3CC[N+](C)(C)CC3)cc21.[Cl-] 6.2
C[C@H]1CN(c2ccnc3c2cnn3C)Cc2ccc(N3CCN[C@H](CO)C3)cc21 7.7
Cc1cc(N2Cc3ccc(N4C[C@@H](F)[C@@H](N)C4)nc3[C@@H](C)C2)c2cnn(C)c2n1 8.1
Cc1cc(N2Cc3ccc(N4CCC(O)(CN(C)C)CC4)cc3[C@@H](C)C2)c2cnn(C)c2n1 6.2
Cc1cc(N2Cc3ccc(N4CCC(C)(N)CC4)nc3[C@@H](C)C2)c2cnn(C)c2n1 9.4

A. CO[C@@H]1CN(c2cc3c(cn2)CN(c2cc(C)nc4c2cnn4C)C[C@@H]3C)C[C@H]1N
B. C[C@H]1CN(c2ccnc3c2cnn3C)Cc2ccc(N3CCN(c4cc5c(cn4)CCNC5)CC3)cc21
Looking at recorded values for Clearance of Human microsome, does A or B come in lower? Kindly state the label of the option you pick.
A
